tested on: NCI-H1734; assay: relative viability (nuclei count vs DMSO), 5 days (fraction); higher = more cells survive; conditions: first compound 2.53 µM
Each entry below carries its recorded relative viability.
When you answer, write just the number.

Nc1cccc2c1CN(C1CCC(=O)NC1=O)C2=O (stereo unspecified) [Lenalidomide] + NC(=O)Nc1cc(-c2cccc(F)c2)sc1C(=O)N[C@H]1CCCNC1 [AZD7762] (partner 0.2 µM)
0.618
Nc1cccc2c1CN(C1CCC(=O)NC1=O)C2=O (stereo unspecified) [Lenalidomide] + Nc1nc2[nH]cc(CCc3ccc(C(=O)N[C@@H](CCC(=O)O)C(=O)O)cc3)c2c(=O)[nH]1 [Pemetrexed] (partner 0.2 µM)
0.433
Nc1cccc2c1CN(C1CCC(=O)NC1=O)C2=O (stereo unspecified) [Lenalidomide] + CC1(C)CCC(c2ccc(Cl)cc2)=C(CN2CCN(c3ccc(C(=O)NS(=O)(=O)c4ccc(N[C@H](CCN5CCOCC5)CSc5ccccc5)c(S(=O)(=O)C(F)(F)F)c4)cc3)CC2)C1 [Navitoclax] (partner 0.5 µM)
1.01
Nc1cccc2c1CN(C1CCC(=O)NC1=O)C2=O (stereo unspecified) [Lenalidomide] + CC(C)C[C@H](NC(=O)[C@H](Cc1ccccc1)NC(=O)c1cnccn1)B(O)O [Bortezomib] (partner 0.002 µM)
1.02
Nc1cccc2c1CN(C1CCC(=O)NC1=O)C2=O (stereo unspecified) [Lenalidomide] + Cc1cc(Nc2cc(N3CCN(C)CC3)nc(Sc3ccc(NC(=O)C4CC4)cc3)n2)n[nH]1 [Tozasertib] (partner 0.1 µM)
0.232

// next entry
Q: relative viability for Nc1cccc2c1CN(C1CCC(=O)NC1=O)C2=O (stereo unspecified) [Lenalidomide] + C[C@]1(O)C[C@@H](c2nc(-c3ccc4ccc(-c5ccccc5)nc4c3)c3c(N)nccn32)C1 [Linsitinib] (partner 1 µM) ?
A: 0.934

Every entry's value here was drawn from the supplement of paper PMC10307832.
